As shown below, each of these compounds has a reported IC50 value.
# target entity: glucosylceramide synthase (GCS) (Homo sapiens (Human), UniProt Q16739)
# Sequence (Q16739 whole entry): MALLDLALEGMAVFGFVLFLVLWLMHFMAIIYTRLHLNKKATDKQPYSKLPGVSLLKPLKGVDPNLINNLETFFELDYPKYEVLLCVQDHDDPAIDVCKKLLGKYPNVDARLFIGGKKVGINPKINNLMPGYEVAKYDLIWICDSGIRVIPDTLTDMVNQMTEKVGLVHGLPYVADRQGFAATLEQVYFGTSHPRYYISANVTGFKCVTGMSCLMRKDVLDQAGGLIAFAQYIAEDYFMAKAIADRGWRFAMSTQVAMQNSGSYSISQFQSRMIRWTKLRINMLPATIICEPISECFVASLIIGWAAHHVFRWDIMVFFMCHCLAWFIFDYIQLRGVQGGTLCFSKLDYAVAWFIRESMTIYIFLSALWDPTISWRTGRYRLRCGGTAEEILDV
# assay notes: UDP-Glo glucosylceramide synthase biochemical assay
# experimental conditions: endogenous GCS in Golgi preparations isolated from human A375 malignant melanoma skin cells; UDP detection by luminescence
Just the number in nM, nothing appended.

# count of solved cases: 4
{"columns": ["compound", "readout units", "meas value"],
 "data": [
  ["N#Cc1cnc(C2CC2)nc1OC[C@H]1CCN(c2ccc(-c3ccon3)cc2)C1", "nM", 37],
  ["COc1ccc2c(c1)C(Nc1nc(C3CC3)ncc1C#N)CC2 (centres unmarked)", "nM", 8.6],
  ["Cc1nc2c(s1)CCCC2Nc1nc(C2CC2)nc(Cl)c1CO (centres unmarked) [Compound 109]", "nM", 593],
  ["N#Cc1cnc(C2CC2)nc1N(CC1CCC1)CC1CCCO1 (centres unmarked)", "nM", 1620]
]}

Then this compound:
Which value of IC50 has been reported for N#Cc1cnc(C2CC2)nc1OC[C@@H]1CCN(c2cc(F)ncc2Cl)C1 in the records?
3510

----------
# target entity: glucosylceramide synthase (GCS) (Homo sapiens (Human))
# assay notes: UDP-Glo glucosylceramide synthase biochemical assay
# experimental conditions: endogenous GCS in Golgi preparations isolated from human A375 malignant melanoma skin cells; UDP detection by luminescence
As shown below, each of these compounds has a reported pIC50 value.
Lab note: report pIC50 as minus log10 of the concentration in molar units, number only.

{"columns": ["compound", "pIC50"],
 "data": [
  ["N#Cc1cnc(C2CC2)nc1OCC1CCN(c2ccc(Cl)cc2)C1 (stereo not drawn) [Compound 57]", 7.70],
  ["N#Cc1cnc(C2CC2)nc1OC[C@H]1CCN(c2csc3c(Cl)ncnc23)C1", 5.40],
  ["OCc1cnc(C2CC2)nc1OC[C@H]1CCN(c2ccc(C(F)(F)F)nc2)C1", 6.24],
  ["N#Cc1cnc(C2CC2)nc1OC[C@H]1CCN(c2cccc(-n3nccn3)c2)C1", 6.45]
]}

Which value of pIC50 has been reported for N#Cc1cnc(C2CC2)nc1NC1CCc2ccc(O)cc21 (stereo not drawn) in the records?
6.42

Please do the same for COc1ccc(N2CCC(Oc3nc(C4CC4)ncc3C#N)C2)cc1 (stereo not drawn) as well.
6.49

Please do the same for N#Cc1cnc(C2CC2)nc1NC(c1ccccc1)C1(N2CCCCC2)CCC1 (stereo not drawn) as well.
5.91

Please do the same for N#Cc1cnc(C2CC2)nc1OC[C@H]1CCN(c2ccc(-c3ccno3)cc2)C1 as well.
7.17

Please do the same for N#Cc1cnc(C2CC2)nc1N1CCc2nc[nH]c2C1c1cccc(F)c1 (stereo not drawn) as well.
5.69

----------
As shown below, each of these compounds has a reported pIC50 value.
# target entity: glucosylceramide synthase (GCS) (Homo sapiens (Human), UniProt Q16739)
# assay notes: UDP-Glo glucosylceramide synthase biochemical assay
# experimental conditions: endogenous GCS in Golgi preparations isolated from human A375 malignant melanoma skin cells; UDP detection by luminescence
# Description: A UDP-Glo™ glucosylceramide synthase biochemical assay was utilized to evaluate the effect of test compounds on the activity of endogenous levels of GCS enzyme contained within Golgi preparations isolated from human A375 malignant melanoma skin cells. […] Using Promega's UDP-Glo™ Glycosyltransferase assay kit (Promega Corporation, Madison, WI, USA (Promega)), GCS activity was indirectly measured by detecting the amount of UDP produced. […] The generated light was detected using a luminometer. […]
Lab note: report pIC50 as minus log10 of the concentration in molar units, number only.

# count of solved cases: 5
{"columns": ["compound", "meas value"],
 "data": [
  ["N#Cc1cnc(C2CC2)nc1OC[C@H]1CCN(c2nnc(C3CC3)s2)C1 [Compound 23]", 5.44],
  ["COc1cc(N2CC[C@@H](COc3nc(C4CC4)ncc3C#N)C2)c(F)cn1 [Compound 38]", 5.53],
  ["N#Cc1cnc(C2CC2)nc1N1CCN(Cc2nc(-c3ccc(Cl)cc3)no2)CC1 [Compound 70]", 6.06],
  ["N#Cc1cnc(C2CC2)nc1OC[C@H]1CCN(c2cnc3ccsc3c2)C1 [Compound 21]", 5.88],
  ["N#Cc1cnc(C2CC2)nc1OCC12CC(COCc3ccccc3)(CO1)C2 [Compound 103]", 5.68]
]}

Which value of pIC50 has been reported for N#Cc1cnc(C2CC2)nc1N1CCC(N(C2CC2)S(=O)(=O)c2ccccc2)CC1 [Compound 83] in the records?
5.80

Please do the same for OCc1c(Cl)nc(C2CC2)nc1N1Cc2nc(-c3ccccc3)oc2C1 [Compound 112] as well.
5.63

Please do the same for N#Cc1cnc(C2CC2)nc1OCC1CCN(c2ccc(Cl)cc2)C1 (stereo not drawn) [Compound 58] as well.
6.81

Please do the same for COc1ccc(N2CCC3(CCN(c4nc(C5CC5)ncc4CO)C3)C2)cc1 (stereo not drawn) [Compound 125] as well.
6.04
